- Test system: HOP-18 NSCLC
- assay: NCI tumour cell line growth inhibition, 48 h
For each entry below, report its TGI value.

# count of solved cases: 4
Q: Please tell me: TGI of CCOP(=O)(OCC)C(C(=O)OC)C(=O)C(=O)Nc1c(C)cc(Br)cc1C (stereo not given) , system HOP-18 NSCLC?
Result: > 100 µM

Q: Please tell me: TGI of COc1ccc(OC(C(=O)O)c2ccccc2)c2c1CCCC2=O (stereo not given) , system HOP-18 NSCLC?
Result: > 100 µM

Q: Please tell me: TGI of "O=c1[nH]cnc2c1CCCN2" , system HOP-18 NSCLC?
Result: > 100 µM

Q: Please tell me: TGI of "Clc1cc2n[se]nc2cc1Cl" , system HOP-18 NSCLC?
Result: > 100 µM

Then there is this molecule:
Q: Please tell me: TGI of "O=C(COC(=O)c1cccc2c(=O)c3ccccc3[nH]c12)Nc1ccccc1" , system HOP-18 NSCLC?
Result: > 100 µM

---

- Test system: CAKI-1 renal
- assay: NCI tumour cell line growth inhibition, 48 h
For each entry below, report its log10(TGI) value.
For clarity, the numbers are log10 values of TGI expressed in µM.

# count of solved cases: 3
Q: Please tell me: log10(TGI) of "CC(=O)[C@@]1(O)[C@H](C)C[C@H]2[C@@H]3C=C(C)C4=Cc5c(cnn5-c5ccccc5)C[C@]4(C)[C@H]3[C@@H](O)C[C@@]21C" , system CAKI-1 renal?
Result: 0.81

Q: Please tell me: log10(TGI) of "COc1ccc2nc3ccccc3c(NCCCN(C)CCCl)c2c1" , system CAKI-1 renal?
Result: 0.21

Q: Please tell me: log10(TGI) of COc1ccc2c(c1OC)OCC(CN(C)C)C2=O (stereo not given) , system CAKI-1 renal?
Result: 1.05

Take each entry in turn and give its log10(TGI).
1. C=C(C)[C@@H]1CC[C@]2(CO)CC[C@]3(C)[C@H](CC[C@@H]4[C@@]5(C)CCC(NCCc6ccc(O)cc6)C(C)(C)[C@@H]5CC[C@]43C)[C@@H]12 (stereo not given in full)
2. CN(C)CCCNC(=O)c1cncnc1Nc1ccc(OCc2cccc(F)c2)c(Cl)c1
3. CCCC(=O)O.CCCC(=O)O.CCCC(=O)O.CCCC(=O)O.[Rh].[Rh]

Result:
1. 0.46
2. 0.48
3. -0.97

---

- Tested on: A498 renal
- assay: NCI tumour cell line growth inhibition, 48 h
observed-property: GI50

# count of solved cases: 4
Q: # GI50 lookup, item "C=C(CN1CCN(c2cccc(C(F)(F)F)n2)CC1)c1ccc(C(=S)Nc2ccccc2N)cc1"
Result: 2.57 µM

Q: # GI50 lookup, item "Cc1ccc(-c2nc(N3CCCNCC3)c3oc(-c4ccccc4)nc3n2)cc1"
Result: 1.66 µM

Q: # GI50 lookup, item "CC(=O)[C@@]1(O)[C@H](C)C[C@H]2[C@@H]3C=C(C)C4=Cc5c(cnn5-c5ccccc5)C[C@]4(C)[C@H]3[C@@H](O)C[C@@]21C"
Result: 3.45 µM

Q: # GI50 lookup, item "O=c1c2c3c(sc2nc(N/N=C/c2ccc(Br)cc2)n1Cc1ccccc1)CCCC3"
Result: > 100 µM

Take each entry in turn and give its GI50.
1. C[C@H]1[C@H]2[C@H]3CC[C@@H]4[C@@]5(C)C/C(=C/c6cccnc6)C(=O)C(C)(C)[C@@H]5CC[C@@]4(C)[C@]3(C)CC[C@]23CO[C@]1(C)[C@@H](C(=O)/C=C\c1cccnc1)C3
2. COc1ccc(-c2cc(-c3ccc(O)cc3)nc3n[nH]c(N)c23)cc1
3. CNC(=O)Oc1cc(C)c(/C=C/c2cncc(C(=O)NC)c2)c(C)c1
4. O=C(NCc1ccncc1)C12CC3CC(C1)CC(c1ccc(Cl)cc1)(C3)C2

Result:
1. 0.661 µM
2. 16.8 µM
3. > 25 µM
4. 7.85 µM
